- test-system: GST-PcrV (strain PAO1, amino acid residues 1-294) (Pseudomonas aeruginosa strain PAO1)
- assay-overview: SPR Biacore T100, GST-PcrV immobilised
Listed here: items and their measured koff.
Give the number; s⁻¹ is assumed, so skip it.

Recorded koff, per entry:
Nanobody 4G10 (VHH) VHH: EVQLVESGGGLVQAGGSLRLSCVISEDGVRNYDMGWFRQAPGKEREFVATINWSGGSTNYADSVKGRFTVSRDNAKNTMYLQMDSLKPEDTAVYYCVAAGFYNNYLRTAPNDWNDWGQGTQVTVSS: 0.00065
Nanobody 5H01 (VHH, also called 05H01) VHH: EVQLVESGGGLVQPGGSLRLSCAASGSTLDYYAIGWFRQAPGKEREGVSCTSNSGSTYYGGSVKGRFTASRDNAKNTVYLQMNSLRPEDTAVYYCVATIGCATLGGTLDVQRYYYRGQGTQVTVSS: 0.00014
Nanobody 2B10 (VHH, also called 02B10) VHH: EVQLVESGGGLVQPGGSLRLSCAASGSIFSINNMGWYRQAPGKQRELVTVVTSNLITTYADSVKGRFTISRDNAKNTVYLQMNSLKPEDTAVYYCNAWARSVGSVPYSQFWGQGTLVTVSS: 0.00025
Nanobody 5E02 (VHH) VHH: EVQLVESGGGLVQPGGSLRLSCAASGITLDSIAICWFRQAPGKEREGVSCSRGSDGSTYYADSVKGRFTISRVNAKNTVYLQMNSLKPEDTAVYYCAAAPSIFYSGGYFPSGMDYWGKGTQVTVSS: 0.00068
Nanobody 7C10 (VHH) VHH: EVQLVESGGGLVQAGGSLRLSCTASGRTLSSYTMGWFRQAPGTEREFVAAMTRSGFNTYYADSVKGRFTISRDSTENTMALQMSSLKPEDTAVYYCTAGRGLTSYRADYWGQGTLVTVSS: 0.0018

Proceed to the following item.
// query # input binder: Nanobody 3E10 (VHH) VHH: EVQLVESGGGLVQAGGSLRLSCTASGHTFSSYTMGWFRQAPGKEREFVAAMTRSGFNTHYSDSVKGRFTISRDNTSRDNTKITMALQMNSLKPEDTAVYYCTTGRGLTSYVANFWGQGTQVTVSS ; wanted: its koff
// result 0.0039
